- Experimental Target: Cad1 (UniProt P24813)
- Sequence: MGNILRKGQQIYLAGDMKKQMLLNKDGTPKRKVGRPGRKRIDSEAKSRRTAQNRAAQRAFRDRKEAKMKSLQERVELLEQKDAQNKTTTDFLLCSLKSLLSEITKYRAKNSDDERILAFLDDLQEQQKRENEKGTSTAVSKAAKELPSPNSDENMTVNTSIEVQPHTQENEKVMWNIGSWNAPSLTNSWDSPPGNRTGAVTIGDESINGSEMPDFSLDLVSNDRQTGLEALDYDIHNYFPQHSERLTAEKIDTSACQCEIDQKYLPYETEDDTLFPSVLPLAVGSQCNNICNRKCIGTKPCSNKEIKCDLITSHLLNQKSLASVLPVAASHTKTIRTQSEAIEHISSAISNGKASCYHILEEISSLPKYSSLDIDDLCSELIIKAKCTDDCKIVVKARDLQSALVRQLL
- Assay Notes: PBM E-score (8-mer binding enrichment) (E-score (-0.5 to 0.5)); higher = stronger / more preferred TF binding
- Study Conditions: protein concentration: 100 nM; construct: GST-full length
Over roughly 33,000 sequences, “E-score (-0.5 to 0.5)” has its median near -0.0014; the highest 2% begin near 0.25. Shown is part of a subset that was picked to be rich in the highest values.
Assay Endpoint: PBM E-score
Could you respond with only the numeric value?

biopolymer_sequence=AGGGGACG experimental_target="Cad1 (UniProt P24813)" recorded_number=-0.189
biopolymer_sequence=CGGGGGCC experimental_target="Cad1 (UniProt P24813)" recorded_number=-0.42
biopolymer_sequence=CGTAATTA experimental_target="Cad1 (UniProt P24813)" recorded_number=0.249
biopolymer_sequence=GCAGCTGA experimental_target="Cad1 (UniProt P24813)" recorded_number=0.0932
biopolymer_sequence=ATAATTAA experimental_target="Cad1 (UniProt P24813)" recorded_number=0.323
biopolymer_sequence=GGAATTAC experimental_target="Cad1 (UniProt P24813)" recorded_number=0.21
biopolymer_sequence=TATTATAA experimental_target="Cad1 (UniProt P24813)" recorded_number=0.185
biopolymer_sequence=GTAATTAA experimental_target="Cad1 (UniProt P24813)" recorded_number=0.218

Can you share its PBM E-score? I mean this sequence: TTATTCAA 0.252

For CATAGCGG , what is its reported PBM E-score? -0.142

PBM E-score for AATAGCGG ? -0.0047

May I ask what PBM E-score has been recorded for GAATGATA ? 0.223

For the sequence GGAGATCA , what PBM E-score is on record? -0.0337

For AAATGATA , what is its reported PBM E-score? 0.214

Return reported PBM E-score; argument: AAATTAAG 0.0523

Recorded PBM E-score for CATAGCGA , please? 0.051

Need PBM E-score, item GGTAATTA 0.186

====

- Experimental Target: Cad1 (UniProt P24813)
- Sequence: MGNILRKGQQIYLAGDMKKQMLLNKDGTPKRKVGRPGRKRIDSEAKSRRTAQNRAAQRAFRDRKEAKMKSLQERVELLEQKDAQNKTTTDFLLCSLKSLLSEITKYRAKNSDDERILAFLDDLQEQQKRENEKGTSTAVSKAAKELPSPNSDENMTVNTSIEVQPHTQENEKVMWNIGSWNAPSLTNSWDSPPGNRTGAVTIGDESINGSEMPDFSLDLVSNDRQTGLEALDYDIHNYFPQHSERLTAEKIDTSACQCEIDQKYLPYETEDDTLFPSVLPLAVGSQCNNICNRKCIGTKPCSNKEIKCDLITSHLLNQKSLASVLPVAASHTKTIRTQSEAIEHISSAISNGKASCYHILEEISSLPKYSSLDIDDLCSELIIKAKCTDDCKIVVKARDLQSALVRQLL
- Assay Notes: PBM E-score (8-mer binding enrichment) (E-score (-0.5 to 0.5)); higher = stronger / more preferred TF binding
- Study Conditions: protein concentration: 100 nM; construct: GST-full length
Whole data set: some 33,000 sequences, median “E-score (-0.5 to 0.5)” near -0.0014, cut for the highest 2% near 0.25. The entries come from a sample that favours the highest values as a whole.
Decide using PBM E-score: a value greater than or equal to 0.1 is condition met, a smaller one is condition not met.

biopolymer_sequence=AATAAGCT assigned_category="condition met"

Kindly consider the entry below.
Given CTACATAA , state whether its PBM E-score is at least 0.1. condition not met

// data source = the supplement of paper PMC3334620
